Reference source for all entries: patent US20170355757A1

target_of_assay: T1, monkey C5-mmh (monkey, UniProt P01031 19-1676 (human entry), limits assumed)
T1 construct: Recombinant monkey C5 with a C-terminal myc-myc-hexahistidine tag
T1 chain: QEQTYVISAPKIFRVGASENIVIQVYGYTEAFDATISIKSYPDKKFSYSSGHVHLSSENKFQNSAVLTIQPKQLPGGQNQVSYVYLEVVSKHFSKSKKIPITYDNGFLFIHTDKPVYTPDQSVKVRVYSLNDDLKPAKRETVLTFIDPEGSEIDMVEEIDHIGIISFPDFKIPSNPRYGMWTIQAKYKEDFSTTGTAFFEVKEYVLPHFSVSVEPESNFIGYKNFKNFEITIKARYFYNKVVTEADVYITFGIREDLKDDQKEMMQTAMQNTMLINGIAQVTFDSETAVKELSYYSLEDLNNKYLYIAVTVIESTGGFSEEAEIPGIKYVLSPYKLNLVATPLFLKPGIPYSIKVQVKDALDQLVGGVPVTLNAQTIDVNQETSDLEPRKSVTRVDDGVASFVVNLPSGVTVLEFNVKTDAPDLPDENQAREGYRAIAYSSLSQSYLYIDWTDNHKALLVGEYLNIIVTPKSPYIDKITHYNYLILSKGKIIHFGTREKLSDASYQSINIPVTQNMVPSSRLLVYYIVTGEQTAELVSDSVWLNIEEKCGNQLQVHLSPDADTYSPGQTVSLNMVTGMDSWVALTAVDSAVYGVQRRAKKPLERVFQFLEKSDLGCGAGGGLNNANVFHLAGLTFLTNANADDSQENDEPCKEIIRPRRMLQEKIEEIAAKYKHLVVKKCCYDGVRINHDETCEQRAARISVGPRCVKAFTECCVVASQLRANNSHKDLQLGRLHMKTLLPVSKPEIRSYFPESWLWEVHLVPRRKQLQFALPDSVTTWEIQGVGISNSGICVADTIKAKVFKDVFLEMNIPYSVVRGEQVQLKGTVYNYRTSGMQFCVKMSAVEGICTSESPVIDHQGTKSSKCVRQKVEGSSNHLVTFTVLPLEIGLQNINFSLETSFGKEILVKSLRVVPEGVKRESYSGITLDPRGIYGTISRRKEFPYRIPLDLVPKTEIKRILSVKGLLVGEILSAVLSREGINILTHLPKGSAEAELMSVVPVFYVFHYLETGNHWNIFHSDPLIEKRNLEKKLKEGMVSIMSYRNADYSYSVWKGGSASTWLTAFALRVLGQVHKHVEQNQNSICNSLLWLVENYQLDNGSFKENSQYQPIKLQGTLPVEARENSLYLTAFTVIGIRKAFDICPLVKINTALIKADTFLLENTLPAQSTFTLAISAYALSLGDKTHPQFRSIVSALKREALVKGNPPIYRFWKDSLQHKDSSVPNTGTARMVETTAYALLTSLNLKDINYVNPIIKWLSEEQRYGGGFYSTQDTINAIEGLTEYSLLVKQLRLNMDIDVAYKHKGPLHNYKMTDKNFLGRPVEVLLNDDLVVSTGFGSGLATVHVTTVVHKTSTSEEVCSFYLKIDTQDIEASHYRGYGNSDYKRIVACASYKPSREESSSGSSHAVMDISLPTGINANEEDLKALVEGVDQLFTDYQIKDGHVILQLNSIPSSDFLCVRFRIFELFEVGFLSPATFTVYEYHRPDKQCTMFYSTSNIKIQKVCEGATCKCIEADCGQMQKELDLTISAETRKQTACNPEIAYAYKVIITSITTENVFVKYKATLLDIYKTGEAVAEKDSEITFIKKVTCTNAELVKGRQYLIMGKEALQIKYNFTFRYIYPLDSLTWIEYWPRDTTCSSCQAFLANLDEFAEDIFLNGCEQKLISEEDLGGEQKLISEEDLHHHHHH
protocol_text: SPR, mAb captured via anti-hFc, 37C
observed_property: koff (s⁻¹)
Quick note: give the figure in s⁻¹, leave out the unit.

{"columns": ["binder", "koff / s⁻¹"],
 "data": [
  ["H4H12166P10 (antibody, human IgG4, V domains shown, Histidine-mutated CDR variant of H4H12166P; human IgG4 Fc with S108P) VH: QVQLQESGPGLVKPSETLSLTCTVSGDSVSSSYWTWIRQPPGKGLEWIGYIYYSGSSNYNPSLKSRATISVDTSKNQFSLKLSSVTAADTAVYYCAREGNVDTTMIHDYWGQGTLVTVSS VL: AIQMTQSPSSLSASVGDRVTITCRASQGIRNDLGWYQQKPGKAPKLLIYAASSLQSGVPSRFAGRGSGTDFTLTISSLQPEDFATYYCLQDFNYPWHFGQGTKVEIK", 0.00279]
]}

For the next question, use this binder.
Incoming: Param item = H4H11686N (antibody, V domains shown, also called H2M11686N) VH: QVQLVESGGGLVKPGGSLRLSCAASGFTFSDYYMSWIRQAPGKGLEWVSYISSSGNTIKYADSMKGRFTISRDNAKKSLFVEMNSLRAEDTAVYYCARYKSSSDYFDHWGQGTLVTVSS VL: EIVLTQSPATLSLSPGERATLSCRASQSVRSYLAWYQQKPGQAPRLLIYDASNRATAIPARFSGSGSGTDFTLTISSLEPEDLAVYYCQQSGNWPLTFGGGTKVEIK ; retrieve measured koff.
Outgoing: 0.00207
